The reported measurements were obtained from ChEMBL document CHEMBL2429803.

- System: Mus musculus
- Experimental details: Acute toxicity in C57BL/6J mouse assessed as lesions in GI tract at 1 to 10 mg/kg, sc after 9 days
- Type: organism-based, Gastrointestinal tract
- Parameters: dose 1-10 mg/kg, route subcutaneous
- Run conditions: in vivo, 216 h

{"columns": ["Chemical smiles", "Activity"],
 "data": [
  ["CC(=O)N[C@@H](CNC(=O)c1cc(NC(=O)c2cc(NC(=O)c3cc(NC(=O)c4nccn4C)cn3C)cn2C)cn1C)CC(=O)Nc1cn(C)c(C(=O)Nc2cc(C(=O)Nc3cc(C(=O)Nc4cc(C(=O)NCCCN(C)CCCNC(=O)c5cccc(C(=O)O)c5)n(C)c4)n(C)c3)n(C)c2)n1", "Non-toxic"],
  ["CN(CCCNC(=O)c1cccc(C(=O)O)c1)CCCNC(=O)c1cc(NC(=O)c2cc(NC(=O)c3cc(NC(=O)c4nc(NC(=O)C[C@@H](N)CNC(=O)c5cc(NC(=O)c6cc(NC(=O)c7cc(NC(=O)c8nccn8C)cn7C)cn6C)cn5C)cn4C)cn3C)cn2C)cn1C", "Non-toxic"],
  ["CN(CCCNC(=O)c1cccc(C(=O)O)c1)CCCNC(=O)c1cc(NC(=O)c2cc(NC(=O)c3cc(NC(=O)c4nc(NC(=O)[C@H](N)CCNC(=O)c5cc(NC(=O)c6cc(NC(=O)c7cc(NC(=O)c8nccn8C)cn7C)cn6C)cn5C)cn4C)cn3C)cn2C)cn1C", "Non-toxic"],
  ["CC(=O)N[C@H](CCNC(=O)c1cc(NC(=O)c2cc(NC(=O)c3cc(NC(=O)c4nccn4C)cn3C)cn2C)cn1C)C(=O)Nc1cn(C)c(C(=O)Nc2cc(C(=O)Nc3cc(C(=O)Nc4cc(C(=O)NCCCN(C)CCCNC(=O)c5cccc(C(=O)O)c5)n(C)c4)n(C)c3)n(C)c2)n1", "Non-toxic"]
]}
